Exercise: state measured GFP signal change (wild-type ribosome) for each of the molecules provided.
Experiment: GFP drop in mixed WT/humanized-ribosome E. coli culture – GFP/RFP fluorescence, OD600, single point, bacterial rRNA inhibitor project, primary screen (AID 720706)
Details: E. coli WT GFP vs humanized-ribosome RFP mutants, 24 h; stronger effect = lower value, DMSO median 0, no signal -100
The whole screen tested about 350,000 compounds, of which about 5,500 (1.6%) were called active. What follows is part of a selection rich in actives, with near analogues and random picks from the rest.
Give bare numbers, in %.

Your task in this section: give GFP signal change (wild-type ribosome) for each listed record.
1. COCC(=O)Nc1ccc2c(c1)[C@H]1C[C@H](CC(=O)NCc3ccccn3)O[C@H](CO)[C@H]1O2
2. Cc1c(-c2ccccc2)n[nH]c1C(=O)N=Nc1c(O)[nH]c2ccccc12
3. Cc1ccc(CNC(=O)Cc2cn(C)c3ccccc23)cc1
4. C[C@H](CO)N1C[C@H](C)[C@H](CN(C)Cc2ccc3c(c2)OCO3)Oc2c(NS(=O)(=O)c3ccccc3)cccc2C1=O
5. Cc1noc(C)c1S(=O)(=O)Nc1ccc2c(c1)C(=O)N([C@H](C)CO)C[C@H](C)[C@H](CN(C)C(=O)CCC(F)(F)F)OCCCC[C@H](C)O2
6. C[C@@H]1CN([C@H](C)CO)C(=O)c2cc(NS(C)(=O)=O)ccc2O[C@H]1CN(C)C(=O)Nc1cccc2ccccc12
7. Cc1cc(C)cc(NC(=O)c2cccc(NC(=O)C3C4CC5OC(=O)C3C5C4)c2)c1 (centres undefined)
8. O=C(CNC(=O)Cc1ccccc1)N=Nc1c(O)[nH]c2ccc(Br)cc12

-0.801
-5.9
-9.46
-1.49
-2.98
2.55
-21.2
-1.63

---

Exercise: state measured OD600 change for each of the compounds provided.
Experiment: GFP drop in mixed WT/humanized-ribosome E. coli culture – GFP/RFP fluorescence, OD600, single point, bacterial rRNA inhibitor project, primary screen (AID 720706)
Conditions: E. coli WT GFP vs humanized-ribosome RFP mutants, 24 h; measured here: OD600 growth, DMSO median 0, no signal -100
In all, about 350,000 compounds went through this assay and about 5,500 (1.6%) were called active. For the sample, actives were picked, then their nearest neighbours and some compounds at random.
One number for each entry, in %.

CCN(CC)S(=O)(=O)c1ccc(N2CCOCC2)c(NC(=O)c2ccc(=O)n(C)n2)c1 :: 11.8

Your task in this section: give OD600 change for each listed record.
1. O=C(CCC(=O)c1cccs1)Nc1nc2ccccc2s1
2. CCN(CC)S(=O)(=O)c1cc(C(=O)Nc2cc(S(=O)(=O)N3CCOCC3)ccc2N2CCCC2)ccc1F
3. O=C(NCc1nnnn1-c1ccc(Cl)cc1)c1ccc([N+](=O)[O-])o1
4. C/C=C/c1ccc2c(c1)[C@H]1[C@H](CCN1S(=O)(=O)c1cn(C)cn1)[C@H](CO)N2
5. CO[C@H]1CC[C@@H]2CCOc3c(C#N)cccc3C(=O)N(C)C[C@H](C)C(=O)N(C)C[C@H]1O2
6. O=C(NCc1nnnn1-c1ccc(Cl)cc1)c1ccc2c(c1)OCO2
7. COc1ccc2c3c([nH]c2c1)[C@H](CO)N(CC1CC1)CC31CN(C(=O)Nc2cccc(F)c2)C1
8. CN1c2ccc(-c3ccccc3)cc2[C@@H]2[C@@H](CCN2C(=O)NC2CCCC2)[C@H]1CO

[-16.4, -14.8, 2.62, 27.2, -1.31, 4.9, -2.33, -47.4]

All figures here come from PubChem BioAssay AID720706.
